Molecular target: OsSMF1 (Oryza sativa, UniProt Q6ZLB0 1-436)
Sequence: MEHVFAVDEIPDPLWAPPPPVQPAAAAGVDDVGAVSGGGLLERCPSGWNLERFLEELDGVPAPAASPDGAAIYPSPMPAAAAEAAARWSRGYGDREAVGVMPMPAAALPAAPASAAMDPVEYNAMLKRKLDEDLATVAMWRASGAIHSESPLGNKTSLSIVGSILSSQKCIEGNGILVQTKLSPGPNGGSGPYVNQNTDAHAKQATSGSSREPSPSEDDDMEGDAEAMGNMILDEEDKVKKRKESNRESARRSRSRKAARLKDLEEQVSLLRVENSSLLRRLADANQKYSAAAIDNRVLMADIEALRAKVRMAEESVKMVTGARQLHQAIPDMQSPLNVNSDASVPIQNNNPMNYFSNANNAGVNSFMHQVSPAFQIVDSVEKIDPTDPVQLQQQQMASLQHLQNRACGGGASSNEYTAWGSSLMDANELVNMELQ
Assay: protein-binding microarray (RPBM); PBS, 2% BSA, 51.3 ng/ul salmon testes DNA, 50 uM zinc acetate, 200 nM TF, 25 C, 1 h; high values mean tight binding
Conditions: protein: recombinant; tags: N-terminal polyhistidine and DsRed monomer fusion (pET32a); chain copies: 2; label: CyDye5-dUTP incorporated in the synthesized complementary strand; 3' TTTTT single-stranded linker to array surface; dsDNA, one strand shown
Over roughly 39,000 sequences, “fluorescence intensity (a.u.)” has its median near 4,300; the highest 2% begin near 39,000. The list comes from a sample in which the highest values are over-represented; it also holds close analogues and randomly drawn sequences.
I'd be grateful if you could share measured binding signal for these entries.

Lookup result for ATTCCTATCATTGGAGTATGTGTGCACGTCATTAGTGCCACGGAGTCACCTAGTGCAG ; measured binding signal: 6500 fluorescence intensity (a.u.)

Lookup result for ACTGGCTTCAATTTATCTATAGCTAATCTAATAGCTAATTCGGAGTCACCTAGTGCAG ; measured binding signal: 33900 fluorescence intensity (a.u.)

Lookup result for ATCACATCAAAACTTTTCTACACATATAAACTTCTAACTTCGGAGTCACCTAGTGCAG ; measured binding signal: 27400 fluorescence intensity (a.u.)

Lookup result for GGGGAGAGGGAGGAGGAGGAGGAGAGTGGCTACTAGTACTCGGAGTCACCTAGTGCAG ; measured binding signal: 3380 fluorescence intensity (a.u.)

Lookup result for TGTTCTAACAATAGCATTTCTTGCATTTAACTATGTTCCTCGGAGTCACCTAGTGCAG ; measured binding signal: 52900 fluorescence intensity (a.u.)

Lookup result for GATGCACCACTGCTGCGTCGCACGTTCCACCCCATTCCACCGGAGTCACCTAGTGCAG ; measured binding signal: 3520 fluorescence intensity (a.u.)

Lookup result for GGAACATGTATGCACCGAACCTGGTGCATGTCCACGTTCACGGAGTCACCTAGTGCAG ; measured binding signal: 3740 fluorescence intensity (a.u.)

Lookup result for GTTCAATTCCTGCTGGATGCACGTGAACCGGAACGTTCCACGGAGTCACCTAGTGCAG ; measured binding signal: 52000 fluorescence intensity (a.u.)

Lookup result for TTATTTATAACTGATCTAATAGCCAATTCACACAATAATTCGGAGTCACCTAGTGCAG ; measured binding signal: 13700 fluorescence intensity (a.u.)
